Target chain: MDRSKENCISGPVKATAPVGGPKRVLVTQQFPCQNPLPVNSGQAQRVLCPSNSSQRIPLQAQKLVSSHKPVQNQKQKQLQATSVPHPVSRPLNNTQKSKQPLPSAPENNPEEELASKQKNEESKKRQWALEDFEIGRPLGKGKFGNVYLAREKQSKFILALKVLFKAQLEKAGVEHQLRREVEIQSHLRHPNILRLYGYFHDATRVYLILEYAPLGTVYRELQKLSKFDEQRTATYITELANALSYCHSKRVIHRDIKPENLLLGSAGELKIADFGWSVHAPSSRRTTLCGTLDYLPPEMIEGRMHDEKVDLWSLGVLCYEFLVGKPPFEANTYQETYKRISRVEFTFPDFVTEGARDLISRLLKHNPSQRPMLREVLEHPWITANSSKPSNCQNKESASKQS
parameter measured: pIC50
As a rule, pIC50 stands for the negative log10 of the concentration, concentration in M.

pIC50 recorded for this compound, NC(=O)[C@@H]1CCNC(=O)[C@H](CCCNC(=O)c2cnccn2)NC(=O)[C@H](Cc2ccco2)NC(=O)[C@H](CC2CC2)NC(=O)/C=C\C(=O)N1 [cis-A11-B1-C5-D7] , is 5.77
